meta.source: PubChem BioAssay (NCI)

So I've got a bunch of compounds here, and I need their growth values.
System: PC-3 prostate
Test: NCI-60 one-dose screen, 48 h (100 = growth as untreated, 0 = no growth, -100 = all killed)
Conditions: 10 µM unless noted
Compounds without any hit were thinned out: in the full panel of roughly 83,000, 20% have a hit. Activity calls are given as the source filed them. Rule for the calls: active = growth percent below 10; inactive = the rest.

Sample records with growth:
CC(=O)Nc1cccc(-n2cnc3cc(-c4ccc(O)cc4)ccc32)c1 :: 35.7% (inactive)
O=C1NC(=O)c2c1c1c3ccccc3ccc1c1[nH]c3ccccc3c21 :: 1.07% (active)
O=S(=O)(Nc1ccc(I)c(Cl)c1)c1ccc(-c2cnc(C3CC3)o2)cc1 :: 20.4% (inactive)

Field: growth. Fill in for each record below.
1. CCOC(=O)c1c(Nc2ccccc2)nn2c(-c3ccc(OC)c(OC)c3)ccnc12
2. CCC(CC)N1C(=O)/C(=c2\sc3n(c2=O)C2C(NN=3)N(CC)C(=O)N2CC)c2ccccc21 (stereo not drawn)
3. CCOC(=O)c1c(NC(=O)c2ccc(F)cc2F)sc2c1CCC(=O)C2
4. C=C(C)[C@@H]1CC[C@]2(C(=O)ON)CC[C@]3(C)[C@H](CC[C@@H]4[C@@]5(C)C/C(=C/c6ccc(Br)cc6)C(=O)C(C)(C)[C@@H]5CC[C@]43C)[C@@H]12
5. CCC(C)[C@H]1OC(=O)[C@H](C(C)C)N(C)C(=O)[C@@H](C(C)C)OC(=O)[C@H](C(C)C)N(C)C(=O)[C@@H](C(C)CC)OC(=O)[C@H](C(C)C)N(C)C1=O (stereo partly drawn)

output:
1: 39.1% (inactive); 2: 33.7% (inactive); 3: 93.7% (inactive); 4: 45.8% (inactive); 5: 12.1% (inactive)
